# Test system: GPR17+ cells (newly differentiated oligodendrocytes)
# ASSAY_PROTOCOL: In vivo OPC differentiation, GPR17+ cells in brain
# CONDITION_PARAMETERS: Mus musculus, po, 24 h, read-out: GPR17 Fold Induction (Over Vehicle)
Listed next: entries and their corresponding fold induction at 3 mg/kg.

{"COMPOUND": "Cn1cc(-c2ccc3c(N4CCN(c5nc(Cc6ccccc6)co5)CC4)cnn3c2)cn1", "fold induction at 3 mg/kg": 5.5}
{"COMPOUND": "Cn1cc(-c2ccc3c(N4CCN(c5ncc(Cc6ccc(F)cc6)cn5)CC4)cnn3c2)cn1", "fold induction at 3 mg/kg": 10.4}
{"COMPOUND": "Cc1ccc(C(C)OC(=O)N2CCN(c3cnn4cc(-c5cnn(C)c5)ccc34)CC2)cn1 (stereo not shown)", "fold induction at 3 mg/kg": 2.97}
{"COMPOUND": "Cn1cc(-c2ccc3c(N4CCN(c5ncc(CC6CCCCO6)cn5)CC4)cnn3c2)cn1 (stereo not shown)", "fold induction at 3 mg/kg": 1.07}
{"COMPOUND": "Cn1cc(-c2ccc3c(N4CCC(c5ncc(Cc6ccccc6)cn5)CC4)cnn3c2)cn1", "fold induction at 3 mg/kg": 1.22}
{"COMPOUND": "Cn1cc(-c2ccc3c(N4CCN(C(=O)NCc5ccc(C(F)(F)F)cc5)CC4)cnn3c2)cn1", "fold induction at 3 mg/kg": 6.33}
{"COMPOUND": "Cn1cc(-c2ccc3c(N4CCN(c5ccc(C(O)c6ccccc6)nc5)CC4)cnn3c2)cn1 (stereo not shown)", "fold induction at 3 mg/kg": 6.43}
{"COMPOUND": "C[C@@H](OC(=O)N1CCN(c2cnn3cc(-c4cnn(C)c4)ccc23)CC1)c1ccc(Cl)cc1Cl", "fold induction at 3 mg/kg": 1.92}
{"COMPOUND": "Cn1cc(-c2ccc3c(N4CCN(c5ncc(Cc6cccnc6)cn5)CC4)cnn3c2)cn1", "fold induction at 3 mg/kg": 1.22}
{"COMPOUND": "C[C@@H](OC(=O)N1CCN(c2cnn3cc(-c4cnn(C)c4)ccc23)CC1)c1ccc(C(F)(F)F)cc1", "fold induction at 3 mg/kg": 10.5}

This collection of values is drawn from patent US20250129067A1.
